Where do the numbers come from? From PubChem BioAssay (NCI).

- Tested on: T-47D breast
- protocol: NCI-60 one-dose screen, 48 h (100 = growth as untreated, 0 = no growth, -100 = all killed)
- measurementParameters: 10 µM unless noted
The panel holds about 83,000 compounds, 20% with a hit somewhere; the sample as a whole holds those more often.
quantityName: growth (%)
The reply should contain only the number, in %.

> print(dat)
                                   compound      testedon  quantityname  readingunit  reportedvalue
1  CN(CCC#N)c1ccc(/C=C(\C#N)c2cccc(C(F)(F)F)c2)cc1  T-47D breast        growth            %           56.7

Problem: State, for T-47D breast, measured growth of the compound listed here: CCCCCCCCCCC(C[N+](C)(C)C/C=C/c1ccccc1)C(O)c1ccccc1 (stereo not given)
Solution: 10.3

Problem: Find the measured growth of COc1cc(NC(C)CCCN)c2nc(C)ccc2c1OC (stereo not given) with T-47D breast as test system.
Solution: 90.5

Problem: Provide growth, tested on T-47D breast, for C[C@@H](c1ccc2c(c1)[nH]c1ccc(Cl)cc12)c1nc2ccccc2[nH]1 .
Solution: 62.3

Problem: Report growth from T-47D breast testing of COC(=O)/C(Br)=C/c1c[nH]c2ccc(Br)cc12
Solution: 72

Problem: System T-47D breast. Read-out growth. Item CCCC(=O)NNc1[nH]c(-c2ccc(OC)cc2)cc1C(=O)OCC . Report value.
Solution: 63.9

Problem: Give measured growth for COc1ccc(C(=O)NCCNc2nccc(-c3c(-c4ccc(F)cc4)nc4sccn34)n2)cc1 (T-47D breast).
Solution: 58.2

Problem: Give growth only, for Oc1ccc2ccccc2c1/C=N\Nc1ccccn1 , using T-47D breast data.
Solution: 7.06

Problem: Answer briefly: growth recorded on T-47D breast for OCCN1CCCN(CCCN2c3ccccc3Sc3ccc(C(F)(F)F)cc32)CC1
Solution: 60.7

Problem: For T-47D breast, give growth of the listed compound: COc1ccc(/C=C(/C(=O)N2CCN(c3ccc(C)cc3)CC2)c2cc(OC)c(OC)c(OC)c2)cc1N
Solution: 97.2

###

- System: T-47D breast
- protocol: NCI-60 one-dose screen, 48 h (100 = growth as untreated, 0 = no growth, -100 = all killed)
- measurementParameters: 10 µM unless noted
The panel holds about 83,000 compounds, 20% with a hit somewhere; the sample as a whole holds those more often.
Note to self: growth under 10% means Met, ties and anything higher get Not met.

> print(dat)
                                  structure  classassignment
1   CC(=O)c1cc(Nc2cc(C)nc(N)n2)cc(C(C)=O)c1          Not met
2  O=C1C(Cl)=C(Nc2ccc(Nc3ccccc3)c(NC3=C(Cl)C(=O)c4ccccc4C3=O)c2)C(=O)c2ccccc21          Not met
3  O=C(Nc1ccc(-n2cc(-c3ccncc3)c(-c3ccc(Cl)c(O)c3)n2)cc1)Nc1cc(C(F)(F)F)cc(C(F)(F)F)c1          Not met
4   Nc1cc(N)c2nc(NCCc3ccc(Cl)c(Cl)c3)cnc2c1              Met

Would you kindly look at the next entry?
Problem: is_below(growth, 10%) for N=C(c1ccccc1)N(Cc1ccccc1)Cc1ccccc1 ?
Solution: Not met

###

- System: DU-145 prostate
- protocol: NCI-60 one-dose screen, 48 h
- measurementParameters: 10 µM unless noted
This is part of a sample that, as a whole, favours compounds with a hit. Of some 83,000 tested, about 20% had one in any assay. Active and inactive are the calls of the source. The calls were made as follows: active = growth percent below 10; inactive = the rest.
In this exercise, the only acceptable responses are active, inactive

Solved cases below.
> print(dat)
                                   molecule  classassignment
1    CCOC(=O)NNc1[nH]c(-c2ccc(OC)cc2)cc1C#N         inactive
2  O=C1c2cc([N+](=O)[O-])ccc2-c2cc(Cl)c(NC(=O)C(F)(F)F)cc21         inactive
3  O=C1C=C(OCC=C(C(F)(F)F)C(F)(F)F)c2ccccc2C1=O           active
4  CC(=O)CCS(=O)c1ccccc1 (stereo unspecified)         inactive
5  O=Nc1c(-c2c(O)[nH]c3cc(Br)ccc23)[nH]c2ccccc12           active
6  CN1CCN(Cc2ccc(NC(=O)c3cncc(C#Cc4c(N)ncc5ccc(F)cc45)c3)cc2C(F)(F)F)CC1         inactive
7            O=C(c1ccccc1)c1ccccc1-c1ccccc1         inactive
8  COc1ccccc1C(=O)Nc1cccc(-c2cc(=O)c3c(OC)c(OC)c(OC)cc3o2)c1         inactive

Problem: Short answer needed: outcome of this test for CCCCCCCCCCCCOC(=N)N(C)C ?
Solution: inactive

Problem: Answer briefly: the call reported for CC[n+]1c(C)ccc2cc(C)ccc21 in this assay.
Solution: inactive

Problem: Answer briefly: the call reported for CCC(C)[C@H](NC(=O)Nc1cc(C(F)(F)F)cc(C(F)(F)F)c1)C(=O)N[C@@H](Cc1cn(C)cn1)C(=O)OC (stereo partly specified) in this assay.
Solution: active

###

- Test system: MCF7 breast
- protocol: NCI-60 one-dose screen, 48 h
- measurementParameters: 10 µM unless noted
This is part of a sample that, as a whole, favours compounds with a hit. Of some 83,000 tested, about 20% had one in any assay. Calls of active or inactive are those of the source. How the source made its calls: active means growth percent below 10; inactive means the rest.
Mark one answer only. Choices: yes (active), no (inactive)

> print(dat)
                                  molecule     testedon  classassignment
1  COc1ccc2nc3cc(Cl)ccc3c(NCCCNC(C)=O)c2c1  MCF7 breast               no

Problem: Recorded test outcome, item Cc1nc(N)sc1C(=O)NCCO
Solution: no

Problem: What did the test return for CC(C)(C)C(=O)CCCCCCCC/C=C/CCCC(O)c1ccco1 (stereo unspecified) ?
Solution: no

Problem: Please share the test call associated with O=C1Nc2ccccc2/C1=C/c1cn(CC(O)Cn2cc(/C=C3\C(=O)Nc4ccccc43)c3ccccc32)c2ccccc12 (stereo unspecified) .
Solution: yes

Problem: Recorded test outcome, item COc1ccc(CN2C(=O)/C(=C\C(=O)c3ccc(OCCN4CCCC4)cc3)c3ccccc32)cc1
Solution: no

Problem: Tell me the assay call for COC(=O)/C=C/c1cc(O)c2oc(-c3ccc(O)c(O)c3)c(C(=O)OC)c2c1 please.
Solution: yes

Problem: What was the test verdict on CCOC1=C(Cl)C(=O)C(OCC)=C(Cl)C1=O ?
Solution: no

Problem: Test call for this molecule, please: C/C(=N\Nc1ccc(Cl)cn1)c1ccc2ccccc2n1
Solution: yes

Problem: Call for entry CCCC(CCC)Oc1ccc(CCCC2=C(O)c3ccccc3C(=O)C2=O)cc1 :
Solution: no

Problem: Answer briefly: the call reported for N#CCCCCCCCCCCC#N in this assay.
Solution: no

Problem: GET /call?item= O=C(C(=O)N1CCOCC1)c1ccc(O[C@H]2O[C@H](CO)[C@@H](O)[C@H](O)[C@@H]2O)cc1 returns the recorded outcome of this test.
Solution: no

###

- Test system: MDA-MB-231 breast
- protocol: NCI-60 one-dose screen, 48 h
- measurementParameters: 10 µM unless noted
The panel holds about 83,000 compounds, 20% with a hit somewhere; the sample as a whole holds those more often. Active and inactive are the calls of the source. Rule for the calls: active = growth percent below 10; inactive = the rest.
A correct response names exactly one class from class 1 (active), class 0 (inactive)

compound	classAssignment
O=C(/C=C/c1cccc(O)c1)c1cccc(-n2cc(-c3ccc(Cl)cc3)[nH]c2=O)c1	class 1
CSCc1ncc(-c2ccc(C(F)(F)F)cc2)c(NC2CCCCCC2)n1	class 0
O=C(Nc1cccc2[nH]c(C(F)(F)F)nc12)c1ccc(F)cc1	class 0
Cc1nc2c(nnn2-c2ccccc2)c2nc(-c3ccc(Cl)cc3)oc(=O)c12	class 0
COc1ccc(-n2nnnc2-c2cn[nH]c2C(F)(F)F)cc1	class 0

Problem: Per the assay record, what outcome was assigned to COc1ccccc1Nc1nnc(COc2ccc(CNC(=O)CCCC/C=C/C(C)C)cc2OC)o1 ?
Solution: class 0

Problem: // return assay outcome for CCCCCCCCC(=O)Nc1ccc(O)cc1
Solution: class 0

Problem: Hi, do you know how CC(=O)OCC1O[C@@H](OC(C)=O)[C@@H](NC(=O)NS(=O)(=O)c2ccccc2)C(OC(C)=O)[C@@H]1OC(C)=O (some centres undefined) came out in this test?
Solution: class 0

Problem: Tell me the assay call for O=C(Nn1cnc2ccccc21)N1CCCC1 please.
Solution: class 0

Problem: Hey, what did the test say about Cc1c(CN(C)C)cc(C(C)C)cc1C(C)C ?
Solution: class 0

Problem: Please share the test call associated with Cc1c(C(N)=O)sc2c1c(=O)n(Cc1ccccc1)c1nnc(S(C)(=O)=O)n21 .
Solution: class 0

Problem: Please share the test call associated with Cc1c(Cc2ccccc2)c(=O)oc2c(C)c(OCC(=O)n3nc(C#N)cc3N)ccc12 .
Solution: class 0

Problem: Dear colleague, could you share the recorded outcome for CC#Cc1nc(Nc2cc(C)[nH]n2)c2ccccc2n1 when you have a moment?
Solution: class 1

Problem: What did this assay record as the result for NC(CSC(c1ccccc1)(c1ccccc1)c1ccccc1)C(=O)NCC(=O)O (centres undefined) ?
Solution: class 0

Problem: Per the assay record, what outcome was assigned to S=C(N/N=C/c1cc(Cl)cc(Cl)c1)NC12CC3CC(CC(C3)C1)C2 ?
Solution: class 0

Problem: Give the logged outcome of this assay for the following compound: COc1ccccc1Cn1cc2c(c1)-c1oncc1CC2
Solution: class 0

Problem: Check the results log: what was the call for CC(O)CN(CCO)CCN(CCO)CC(C)O (centres undefined) ?
Solution: class 0

Problem: Lab log entry: [2H]c1nc(=Nc2cc(NC(=O)C=C)c(N(C)CCN(C)C)cc2OC)[nH]c(-c2cn(C([2H])([2H])[2H])c3ccccc23)c1[2H] — outcome as called in the assay?
Solution: class 0

Problem: Write down the call the test reported for this compound. Item: COc1ccc(CNCCCN2C(=O)c3ccc4c5c(ccc(c35)C2=O)C(=O)N(CCCNCc2ccc(OC)c(OC)c2OC)C4=O)c(OC)c1OC
Solution: class 1

Problem: Dear all, I need the recorded test outcome for N#Cc1ccc(OCc2nc(N)nc(N)c2-c2ccc(Cl)c(Cl)c2)cc1 , thank you.
Solution: class 0
